These data points were gathered from patent US7626031B2.

pIC50: −log10 of the molar value.
Reported pIC50 values, UniProtKB P06213.
Sequence (P06213 28-1382): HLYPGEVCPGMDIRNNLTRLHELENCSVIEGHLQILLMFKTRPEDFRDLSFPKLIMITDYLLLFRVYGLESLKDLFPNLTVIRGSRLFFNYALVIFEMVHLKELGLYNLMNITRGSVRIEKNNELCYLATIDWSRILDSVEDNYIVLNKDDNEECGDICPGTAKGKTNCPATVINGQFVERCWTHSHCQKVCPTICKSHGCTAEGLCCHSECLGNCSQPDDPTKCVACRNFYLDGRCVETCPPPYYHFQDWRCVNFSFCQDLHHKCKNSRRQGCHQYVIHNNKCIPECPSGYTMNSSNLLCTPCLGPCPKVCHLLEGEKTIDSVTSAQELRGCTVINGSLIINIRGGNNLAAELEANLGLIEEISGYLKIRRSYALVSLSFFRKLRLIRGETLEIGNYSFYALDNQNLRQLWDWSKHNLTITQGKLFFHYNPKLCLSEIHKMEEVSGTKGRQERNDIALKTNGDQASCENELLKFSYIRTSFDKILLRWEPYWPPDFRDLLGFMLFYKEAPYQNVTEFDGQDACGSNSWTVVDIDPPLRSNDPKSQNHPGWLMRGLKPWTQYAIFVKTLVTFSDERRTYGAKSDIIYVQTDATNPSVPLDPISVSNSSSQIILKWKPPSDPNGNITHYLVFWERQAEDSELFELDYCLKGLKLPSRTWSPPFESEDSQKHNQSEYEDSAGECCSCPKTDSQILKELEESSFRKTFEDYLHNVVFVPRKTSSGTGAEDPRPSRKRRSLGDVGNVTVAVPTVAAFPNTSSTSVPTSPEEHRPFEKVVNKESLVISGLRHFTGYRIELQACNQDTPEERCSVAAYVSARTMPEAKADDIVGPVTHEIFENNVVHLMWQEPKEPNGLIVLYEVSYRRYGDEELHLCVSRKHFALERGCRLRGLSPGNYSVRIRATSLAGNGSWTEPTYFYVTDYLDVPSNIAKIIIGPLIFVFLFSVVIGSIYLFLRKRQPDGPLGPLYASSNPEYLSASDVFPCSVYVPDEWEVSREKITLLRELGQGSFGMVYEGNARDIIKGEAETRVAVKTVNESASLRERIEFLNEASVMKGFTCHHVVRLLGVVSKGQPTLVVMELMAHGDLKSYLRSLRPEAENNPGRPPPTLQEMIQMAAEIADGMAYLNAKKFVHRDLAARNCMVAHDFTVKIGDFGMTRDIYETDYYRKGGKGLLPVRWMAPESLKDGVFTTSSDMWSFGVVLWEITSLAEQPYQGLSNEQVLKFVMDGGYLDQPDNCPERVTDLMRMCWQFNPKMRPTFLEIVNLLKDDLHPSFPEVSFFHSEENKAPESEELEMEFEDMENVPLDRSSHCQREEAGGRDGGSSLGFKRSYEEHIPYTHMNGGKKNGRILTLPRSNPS

Below, 5 molecules whose answers are already recorded.
smilesStructure	system	pIC50
CCN1CCC(Nc2ccc3c(c2)/C(=C(\c2cccc(C(F)(F)F)c2)c2ncc[nH]2)C(=O)N3)CC1	UniProtKB P06213	< 5.30
CCN1CCC(Nc2ccc3c(c2)/C(=C(\c2cccc(Cl)c2)c2ncc[nH]2)C(=O)N3)CC1	UniProtKB P06213	< 5.30
CCN1CCC(Nc2ccc3c(c2)/C(=C(\c2ccc(C(F)(F)F)nc2)c2ncc[nH]2)C(=O)N3)CC1	UniProtKB P06213	< 5.30
COCCN1CCC(Nc2ccc3c(c2)/C(=C(\c2cc(F)cc(F)c2)c2nc(C)c[nH]2)C(=O)N3)CC1	UniProtKB P06213	5.30 to 6.30
CCN1CCC(Nc2ccc3c(c2)/C(=C(\c2cccc(Cl)c2)c2nc4ccccc4[nH]2)C(=O)N3)CC1	UniProtKB P06213	6.30 to 7.30

Query pIC50 on UniProtKB P06213 for `COCCN1CCC(Nc2ccc3c(c2)/C(=C(\c2ccc(C(F)(F)F)cc2)c2ncc[nH]2)C(=O)N3)CC1`
< 5.30

Query pIC50 on UniProtKB P06213 for `CCN1CCC(Nc2ccc3c(c2)/C(=C(\c2ccc(C)cc2)c2nc(C)c[nH]2)C(=O)N3)CC1`
5.30 to 6.30

Hello, I am looking for reported pIC50 with UniProtKB P06213 for `COCCN1CCC(Nc2ccc3c(c2)/C(=C(\c2cccc(F)c2)c2nc(C)c[nH]2)C(=O)N3)CC1` . Could you help?
5.30 to 6.30

Reported pIC50 for UniProtKB P06213, given `COCCN1CCC(Oc2ccc3c(c2)/C(=C(\c2cccc(Cl)c2)c2nc4ccccc4[nH]2)C(=O)N3)CC1` ?
5.30 to 6.30

Value wanted: pIC50 (UniProtKB P06213) of entry `COCCN1CCC(Nc2ccc3c(c2)/C(=C(\c2ccc(OC)cc2)c2ncc[nH]2)C(=O)N3)CC1`
< 5.30

Write down the reported pIC50 of `COCCN1CCC(Nc2ccc3c(c2)/C(=C(\c2ccccc2)c2nc4ccccc4[nH]2)C(=O)N3)CC1` , test system: UniProtKB P06213.
5.30 to 6.30

Observed pIC50 on UniProtKB P06213 for `COCCN1CCC(Nc2ccc3c(c2)/C(=C(\c2ccccc2)c2nc4cc(Cl)ccc4[nH]2)C(=O)N3)CC1` , please.
< 5.30

What reported pIC50 corresponds to `COCCN1CCC(Nc2ccc3c(c2)/C(=C(\c2ccc(F)cc2)c2nc4ccccc4[nH]2)C(=O)N3)CC1` on UniProtKB P06213?
5.30 to 6.30

For the record `CCN1CCC(Nc2ccc3c(c2)/C(=C(\c2ccc(F)cc2)c2nc(C)c[nH]2)C(=O)N3)CC1` , what value of pIC50 is listed for UniProtKB P06213?
5.30 to 6.30

Item `COCCN1CCC(Nc2ccc3c(c2)/C(=C(\c2cccc(F)c2)c2nc(-c4ccccc4)c[nH]2)C(=O)N3)CC1` with UniProtKB P06213 - pIC50?
5.30 to 6.30

====

Observed IC50, system PDGFR alpha (Homo sapiens).

smilesStructure	IC50
CCN1CCC(Nc2ccc3c(c2)/C(=C(\c2cccc(C(F)(F)F)c2)c2nc(C)c[nH]2)C(=O)N3)CC1	< 50 nM

// returns reported IC50 for input `CCN1CCC(Oc2ccc3c(c2)/C(=C(\c2cccc(Cl)c2)c2nc4ccccc4[nH]2)C(=O)N3)CC1`
< 50 nM

Would you kindly share the measured IC50 for `COCCN1CCC(Nc2ccc3c(c2)/C(=C(\c2cccc(F)c2)c2nc4ccccc4[nH]2)C(=O)N3)CC1` ?
< 50 nM

State the recorded IC50 for this entry: `CCN1CCC(Nc2ccc3c(c2)/C(=C(\c2cccc(Cl)c2)c2nc4ccccc4[nH]2)C(=O)N3)CC1`
< 50 nM

Name the recorded IC50 for `O=C1Nc2ccc(NC3CCN(CCN4CCCCC4)CC3)cc2/C1=C(\c1cccc(F)c1)c1ncc[nH]1` .
50 to 500 nM

Give its IC50 value. Item: `COCCN1CCC(Nc2ccc3c(c2)/C(=C(\c2ccc(F)cc2)c2nc4ccccc4[nH]2)C(=O)N3)CC1`
< 50 nM

Quick one: IC50 for `CCN1CCC(Nc2ccc3c(c2)/C(=C(\c2cccc(C(=N)N)c2)c2nc4ccccc4[nH]2)C(=O)N3)CC1` ?
500 to 5000 nM

====

- system: KDR (baculovirus expressed human KDR kinase domain D807-V1356) (Homo sapiens)
- Sequence (P35968 807-1356): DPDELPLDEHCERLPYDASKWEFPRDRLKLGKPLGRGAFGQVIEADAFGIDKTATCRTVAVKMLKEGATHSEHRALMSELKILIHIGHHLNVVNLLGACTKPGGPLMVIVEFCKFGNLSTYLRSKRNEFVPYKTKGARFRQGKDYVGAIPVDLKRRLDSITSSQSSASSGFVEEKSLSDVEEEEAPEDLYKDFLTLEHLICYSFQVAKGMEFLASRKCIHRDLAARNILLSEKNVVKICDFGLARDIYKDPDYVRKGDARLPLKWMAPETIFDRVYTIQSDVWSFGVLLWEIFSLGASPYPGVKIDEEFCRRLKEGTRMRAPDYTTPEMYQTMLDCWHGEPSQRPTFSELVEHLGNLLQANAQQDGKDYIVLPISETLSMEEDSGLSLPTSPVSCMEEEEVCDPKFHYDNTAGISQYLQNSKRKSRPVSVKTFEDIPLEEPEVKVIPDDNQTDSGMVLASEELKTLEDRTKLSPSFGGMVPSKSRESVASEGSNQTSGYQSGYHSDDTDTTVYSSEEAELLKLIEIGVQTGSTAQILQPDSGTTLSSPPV
reportedMetric: IC50

smilesStructure	system	IC50
CCN1CCC(Nc2ccc3c(c2)/C(=C(/c2nc(C)c[nH]2)c2ccc(Cl)cc2F)C(=O)N3)CC1	KDR (baculovirus expressed human KDR kinase domain D807-V1356) (Homo sapiens)	< 50 nM
COCCN1CCC(Nc2ccc3c(c2)/C(=C(\c2ccc(Cl)cc2)c2ncc[nH]2)C(=O)N3)CC1	KDR (baculovirus expressed human KDR kinase domain D807-V1356) (Homo sapiens)	< 50 nM
COCCN1CCC(Nc2ccc3c(c2)/C(=C(\c2cc(F)cc(F)c2)c2ncc[nH]2)C(=O)N3)CC1	KDR (baculovirus expressed human KDR kinase domain D807-V1356) (Homo sapiens)	< 50 nM
CCN1CCC(Nc2ccc3c(c2)/C(=C(\c2ccc(N)cc2)c2nc4ccccc4[nH]2)C(=O)N3)CC1	KDR (baculovirus expressed human KDR kinase domain D807-V1356) (Homo sapiens)	< 50 nM
COCCN1CCC(Oc2ccc3c(c2)/C(=C(\c2cc(F)cc(F)c2)c2nc4ccccc4[nH]2)C(=O)N3)CC1	KDR (baculovirus expressed human KDR kinase domain D807-V1356) (Homo sapiens)	< 50 nM
CCN(CC)CCN1CCC(Nc2ccc3c(c2)/C(=C(\c2cccc(F)c2)c2ncc[nH]2)C(=O)N3)CC1	KDR (baculovirus expressed human KDR kinase domain D807-V1356) (Homo sapiens)	50 to 500 nM
CCN1CCC(Nc2ccc3c(c2)/C(=C(\c2ccc(Cl)cc2)c2nc(C)c[nH]2)C(=O)N3)CC1	KDR (baculovirus expressed human KDR kinase domain D807-V1356) (Homo sapiens)	< 50 nM
CCN1CCC(Nc2ccc3c(c2)/C(=C(\c2cccc(F)c2)c2ncn[nH]2)C(=O)N3)CC1	KDR (baculovirus expressed human KDR kinase domain D807-V1356) (Homo sapiens)	50 to 500 nM
COCCN1CCC(Oc2ccc3c(c2)/C(=C(\c2cccc(Cl)c2)c2nc4ccccc4[nH]2)C(=O)N3)CC1	KDR (baculovirus expressed human KDR kinase domain D807-V1356) (Homo sapiens)	< 50 nM
CCN1CCC(Nc2ccc3c(c2)/C(=C(\c2ccc(C)cc2)c2ncc[nH]2)C(=O)N3)CC1	KDR (baculovirus expressed human KDR kinase domain D807-V1356) (Homo sapiens)	< 50 nM

For `CC1(C)CC(Nc2ccc3c(c2)/C(=C(\c2ccccc2)c2nc4ccccc4[nH]2)C(=O)N3)CC(C)(C)N1` , what is its reported IC50?
50 to 500 nM

Given `COCCN1CCC(Nc2ccc3c(c2)/C(=C(\c2ccccc2)c2ncc[nH]2)C(=O)N3)CC1` , state its recorded IC50.
< 50 nM

Can you share its IC50? I mean this molecule: `CCN1CCC(Nc2ccc3c(c2)/C(=C(/c2cc(F)cc(F)c2)c2nc4cc(F)ccc4[nH]2)C(=O)N3)CC1`
< 50 nM

Reported IC50 for `CCN1CCC(Nc2ccc3c(c2)/C(=C(\c2ccc(F)c(C)c2)c2nc4ccccc4[nH]2)C(=O)N3)CC1` : what is it?
< 50 nM

Looking for the measured IC50 of `COCCN1CCC(Nc2ccc3c(c2)/C(=C(\c2ccc(C(F)(F)F)c(F)c2)c2ncc[nH]2)C(=O)N3)CC1` , can you help?
< 50 nM

====

The following compounds each carry a recorded pIC50 for UniProtKB P10721.
Sequence (P10721 26-976): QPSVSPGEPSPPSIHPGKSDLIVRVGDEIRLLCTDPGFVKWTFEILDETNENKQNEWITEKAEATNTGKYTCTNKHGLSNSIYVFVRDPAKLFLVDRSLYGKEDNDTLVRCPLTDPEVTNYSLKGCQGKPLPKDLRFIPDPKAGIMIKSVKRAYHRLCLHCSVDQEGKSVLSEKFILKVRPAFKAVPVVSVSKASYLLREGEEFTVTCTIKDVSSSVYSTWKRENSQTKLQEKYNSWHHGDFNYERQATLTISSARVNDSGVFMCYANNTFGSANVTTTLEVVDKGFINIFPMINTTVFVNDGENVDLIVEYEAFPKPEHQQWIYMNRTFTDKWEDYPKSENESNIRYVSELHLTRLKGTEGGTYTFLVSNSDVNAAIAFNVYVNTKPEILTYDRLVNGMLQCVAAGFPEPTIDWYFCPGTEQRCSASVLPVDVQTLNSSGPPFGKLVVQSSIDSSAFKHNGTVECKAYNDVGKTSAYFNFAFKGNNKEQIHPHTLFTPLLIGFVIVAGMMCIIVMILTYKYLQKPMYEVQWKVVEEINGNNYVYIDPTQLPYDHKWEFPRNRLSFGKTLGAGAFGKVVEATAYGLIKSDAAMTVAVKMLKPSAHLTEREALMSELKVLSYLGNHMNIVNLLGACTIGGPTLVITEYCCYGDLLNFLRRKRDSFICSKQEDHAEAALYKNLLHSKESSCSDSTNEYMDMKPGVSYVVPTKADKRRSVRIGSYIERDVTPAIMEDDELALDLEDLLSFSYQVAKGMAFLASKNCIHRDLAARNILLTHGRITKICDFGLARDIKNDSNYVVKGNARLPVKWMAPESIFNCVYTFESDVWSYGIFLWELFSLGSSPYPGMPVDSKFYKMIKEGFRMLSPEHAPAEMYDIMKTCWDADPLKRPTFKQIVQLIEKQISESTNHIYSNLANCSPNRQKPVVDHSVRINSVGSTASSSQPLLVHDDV
pIC50: −log10 of the molar value.

Here is how some compounds turned out for pIC50.
compound	system	pIC50
COCCN1CCC(Nc2ccc3c(c2)/C(=C(\c2cccc(F)c2)c2ncc[nH]2)C(=O)N3)CC1 [Entry 41]	UniProtKB P10721	6.30 to 7.30
CCN1CCC(Nc2ccc3c(c2)/C(=C(/c2nc(C)c[nH]2)c2ccc(F)cc2F)C(=O)N3)CC1 [Entry 111]	UniProtKB P10721	> 7.30
CCN1CCC(Nc2ccc3c(c2)/C(=C(/c2nc(C)c[nH]2)c2cccc(F)c2F)C(=O)N3)CC1 [Entry 110]	UniProtKB P10721	> 7.30

Hello, I am looking for reported pIC50 with UniProtKB P10721 for CCN1CCC(Nc2ccc3c(c2)/C(=C(\c2ccc(F)c(Cl)c2)c2ncc[nH]2)C(=O)N3)CC1 [Entry 53] . Could you help?
> 7.30

Find pIC50 (UniProtKB P10721) for the entry CCN1CCC(Nc2ccc3c(c2)/C(=C(\c2ccc(F)c(Cl)c2)c2nc(C)c[nH]2)C(=O)N3)CC1 [Entry 105]
6.30 to 7.30

Observed pIC50 on UniProtKB P10721 for CCN1CCC(Nc2ccc3c(c2)/C(=C(\c2cc(F)cc(F)c2)c2ncc[nH]2)C(=O)N3)CC1 [Entry 73] , please.
6.30 to 7.30

Give recorded pIC50 with UniProtKB P10721 for the following compound: CCN1CCC(Nc2ccc3c(c2)/C(=C(\c2cc(F)cc(F)c2)c2nc(C)c[nH]2)C(=O)N3)CC1 [Entry 74]
> 7.30
